Source listed as paper PMC9324987.

- system: Qa-4 (Neurospora crassa, UniProt P07046)
- Sequence (P07046 whole entry): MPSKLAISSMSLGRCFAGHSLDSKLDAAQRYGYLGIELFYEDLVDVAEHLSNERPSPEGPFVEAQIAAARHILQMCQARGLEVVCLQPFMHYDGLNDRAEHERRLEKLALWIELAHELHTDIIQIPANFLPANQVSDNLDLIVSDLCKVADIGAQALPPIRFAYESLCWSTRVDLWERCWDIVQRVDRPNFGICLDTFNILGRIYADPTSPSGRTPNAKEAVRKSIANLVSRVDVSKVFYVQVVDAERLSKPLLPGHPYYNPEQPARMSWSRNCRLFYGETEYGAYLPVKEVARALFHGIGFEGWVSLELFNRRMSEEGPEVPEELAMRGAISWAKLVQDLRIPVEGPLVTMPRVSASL
experimental-readout: IC50

Problem: Request - read-out IC50 | tested on Qa-4 (Neurospora crassa, UniProt P07046) | compound `O=C(O)c1ccc(O)c(O)c1`
Result: ~640 µM

* * *

- system: AsbF (Bacillus thuringiensis, UniProt A0A1B1L4G3)
- Sequence (A0A1B1L4G3 1-280): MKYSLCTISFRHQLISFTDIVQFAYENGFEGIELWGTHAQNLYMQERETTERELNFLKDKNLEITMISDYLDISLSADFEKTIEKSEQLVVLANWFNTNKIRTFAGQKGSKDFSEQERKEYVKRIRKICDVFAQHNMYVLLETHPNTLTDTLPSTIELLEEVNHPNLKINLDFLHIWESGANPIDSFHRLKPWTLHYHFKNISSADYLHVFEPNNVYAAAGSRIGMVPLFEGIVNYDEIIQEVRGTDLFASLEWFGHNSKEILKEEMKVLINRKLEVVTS
experimental-readout: IC50

Problem: Request - read-out IC50 | tested on AsbF (Bacillus thuringiensis, UniProt A0A1B1L4G3) | compound `O=C(O)c1ccc(O)c(O)c1`
Result: ~80 µM
